- TARGET_SYSTEM: GSK3β (Homo sapiens)
- EXPERIMENTAL_PROTOCOL: GSK3β ATP depletion assay
- Assay type: biochemical
- PARTICULARS: read-out: GSK3b IC50
PROPERTY: IC50 (µM)

For orientation, consider the following solved cases.
N[C@@H]1C[C@H](c2ccncc2NC(=O)c2ccc(F)c(-c3c(F)cccc3F)n2)O[C@@H]2CCC[C@]12O	0.29
NC(=O)[C@H]1O[C@@H](c2ccncc2NC(=O)c2ccc(F)c(-c3c(F)cccc3F)n2)C[C@@H](O)[C@@H]1O	3.36
C=C[C@H]1OC(c2ccncc2NC(=O)c2nc(-c3c(F)cccc3F)ncc2N)=C[C@@H](O)[C@@H]1O	0.394
C[C@@H]1O[C@H](c2ccncc2NC(=O)c2ccc(F)c(-c3c(F)cccc3F)n2)[C@@H](F)[C@H](O)[C@@]1(C)O (stereo in doubt)	1.48

a: CC1C(c2ccncc2NC(=O)c2ccc(F)c(-c3c(F)cccc3F)n2)OC(C)[C@@H](O)C1O (stereo in doubt) [Example 64]
b: C[C@@H]1OC(c2ccncc2NC(=O)c2nc(-c3c(F)cccc3F)ncc2N)=C[C@H](O)[C@@]1(C)O
[Q] Input pair: a , b . Output: entry with lower IC50. Please identify the chosen entry by its label.
[A] a
(a: 0.549 µM, b: 1.47 µM)

====

- TARGET_SYSTEM: GSK3β (Homo sapiens, UniProt P49841)
- Sequence (P49841 whole entry, species assumed): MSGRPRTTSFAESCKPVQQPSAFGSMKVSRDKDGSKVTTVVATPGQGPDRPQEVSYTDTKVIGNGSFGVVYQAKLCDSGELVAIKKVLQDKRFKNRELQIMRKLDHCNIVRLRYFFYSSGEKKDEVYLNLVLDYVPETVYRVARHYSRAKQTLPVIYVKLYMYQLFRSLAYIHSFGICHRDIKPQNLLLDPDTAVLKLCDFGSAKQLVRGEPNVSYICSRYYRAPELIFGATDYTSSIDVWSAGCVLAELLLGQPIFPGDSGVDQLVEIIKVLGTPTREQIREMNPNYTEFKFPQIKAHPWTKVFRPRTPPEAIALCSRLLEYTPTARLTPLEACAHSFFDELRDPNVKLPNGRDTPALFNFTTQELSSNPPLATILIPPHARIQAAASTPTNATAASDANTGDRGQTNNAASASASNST
- EXPERIMENTAL_PROTOCOL: GSK3β ATP depletion assay
- Assay type: biochemical
- PARTICULARS: ATP depletion assay; read-out: GSK3b IC50
PROPERTY: IC50 (µM)

CC(C)C(=O)Nc1ccc(F)c(-c2nc(C(=O)Nc3cnccc3[C@H]3C[C@@H](N)[C@H](O)[C@@H](C(C)C)O3)ccc2F)c1F [Example 308]	18.3

I: CC[C@]1(O)[C@H](N)CC(c2ccncc2NC(=O)c2ccc(F)c(-c3c(F)cc(S(C)(=O)=O)cc3F)n2)O[C@@H]1C (stereo in doubt) [Example 284]
II: Nc1ncc(-c2ccccc2)nc1C(=O)Nc1cnccc1[C@H]1C[C@@H](N)[C@@]2(O)CCCC[C@H]2O1 [Example 197]
III: COc1cc(F)c(-c2nc(C(=O)Nc3cnccc3[C@H]3C[C@@H](N)[C@H](O)[C@@H](C4CC4)O3)ccc2F)c(F)c1 [Example 323]
[Q] Parameters: sort_field (IC50), sort_dir (desc). Answer by listing the labels in the order asked for.
[A] III, I, II

a: Nc1ncc(-c2ccccc2)nc1C(=O)Nc1cnccc1[C@@H]1C[C@H](N)[C@@H](O)[C@H](C2CC2)O1 [Example 349]
b: CC(C)(C)[C@@H]1O[C@H](c2ccncc2NC(=O)c2ccc(F)c(-c3c(F)cccc3F)n2)C[C@H](N)[C@H]1O [Example 254]
[Q] Out of a and b , name the one with the higher IC50. Reply briefly: the label of your chosen item.
[A] b
(b: 4.69 µM, a: 0.1 µM)

I: Cc1cc(F)c(-c2nc(C(=O)Nc3cnccc3[C@H]3C[C@@H](N)[C@](C)(O)[C@@H](C4CC4)O3)ccc2F)c(F)c1 [Example 264]
II: C[C@H]1O[C@@H](c2ccncc2NC(=O)c2ccc(F)c(-c3ccccc3)n2)C[C@@H](N)[C@]1(C)O [Example 320]
[Q] Kindly identify which of I and II has the larger recorded IC50 value. API: response body contains the label of the selected item.
[A] II
(II: 3.25 µM, I: 1.79 µM)
